Provide the reported viability, T/C of each item.
system: 287954-098-R-J1 tumor spheroid viability; assay: Anticancer human tumor 287954-098-R-J1 patient-derived Ewing sarcoma cell line growth inhibition; conditions: second compound 10 µM; first compound 1 µM; stronger effect = lower value; spheroids with HUVEC and MSC
Return type: number; implicit unit %.

// lookup viability, T/C for COc1cc(C)[nH]c(=O)c1CN1CCc2c(Cl)cc(C(OC)C3COC3)c(Cl)c2C1=O (stereo unspecified) + Cn1nnc2c(C(N)=O)ncn2c1=O
89.6

[2H]c1nc(C)nc([2H])c1-c1cc(NC[C@@H](C)c2cccc3c(C(=O)NC)ccnc23)ncn1 + Cn1nnc2c(C(N)=O)ncn2c1=O ?
104

CC1COCCN1c1cc(-c2ccnn2C)c2ccnc(-c3ccn[nH]3)c2n1 (stereo unspecified) + Cn1nnc2c(C(N)=O)ncn2c1=O ?
5.1

COc1ccc([C@@H](O)c2cc(-c3ncnc4cc(N5CCOCC5)ccc34)c(F)cc2Cl)nn1 + Cn1nnc2c(C(N)=O)ncn2c1=O ?
105

Cc1cc(C)c(CNC(=O)c2cc(-c3ccc(CN4CCOCC4)cc3)cc3c2cnn3C2CCCC2)c(=O)[nH]1 + Cn1nnc2c(C(N)=O)ncn2c1=O ?
106

CC(C)n1c(=O)n(C)c2cnc3cc(F)c(-c4ccc(OCCCN5CCCCC5)nc4)cc3c21 + Cn1nnc2c(C(N)=O)ncn2c1=O ?
109

###

tested on: 287954-098-R-J1 tumor spheroid viability; experiment: Anticancer human tumor 287954-098-R-J1 cell line growth inhibition; details: curve of first compound; second compound 0.3 µM; spheroids with HUVEC and MSC;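 also: spheroids exposed to compound for 7 days before viability readout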
pIC50: −log10 of the molar value.
quantity kind: pIC50

// lookup pIC50 for COc1cc(C)[nH]c(=O)c1CN1CCc2c(Cl)cc(C(OC)C3COC3)c(Cl)c2C1=O (stereo not given) + CC[C@@]1(O)C(=O)OCc2c1cc1n(c2=O)Cc2cc3c(CN(C)C)c(O)ccc3nc2-1
> 7.50

[2H]c1nc(C)nc([2H])c1-c1cc(NC[C@@H](C)c2cccc3c(C(=O)NC)ccnc23)ncn1 + CC[C@@]1(O)C(=O)OCc2c1cc1n(c2=O)Cc2cc3c(CN(C)C)c(O)ccc3nc2-1 ?
> 7.50

Cc1sc2c(c1C)C(c1ccc(Cl)cc1)=NC(CC(=O)Nc1ccc(O)cc1)c1nnc(C)n1-2 (stereo not given) + CC[C@@]1(O)C(=O)OCc2c1cc1n(c2=O)Cc2cc3c(CN(C)C)c(O)ccc3nc2-1 ?
> 8.02

COc1ccc([C@@H](O)c2cc(-c3ncnc4cc(N5CCOCC5)ccc34)c(F)cc2Cl)nn1 + CC[C@@]1(O)C(=O)OCc2c1cc1n(c2=O)Cc2cc3c(CN(C)C)c(O)ccc3nc2-1 ?
> 7.50

O=C(c1cc(Cc2n[nH]c(=O)c3ccccc23)ccc1F)N1CCN(C(=O)C2CC2)CC1 + CC[C@@]1(O)C(=O)OCc2c1cc1n(c2=O)Cc2cc3c(CN(C)C)c(O)ccc3nc2-1 ?
> 7.02

Cn1ncnc1[C@H]1c2n[nH]c(=O)c3cc(F)cc(c23)N[C@@H]1c1ccc(F)cc1 + CC[C@@]1(O)C(=O)OCc2c1cc1n(c2=O)Cc2cc3c(CN(C)C)c(O)ccc3nc2-1 ?
> 8.02

CC1COCCN1c1cc(-c2ccnn2C)c2ccnc(-c3ccn[nH]3)c2n1 (stereo not given) + CC[C@@]1(O)C(=O)OCc2c1cc1n(c2=O)Cc2cc3c(CN(C)C)c(O)ccc3nc2-1 ?
> 7.50

CC(C)n1c(=O)n(C)c2cnc3cc(F)c(-c4ccc(OCCCN5CCCCC5)nc4)cc3c21 + CC[C@@]1(O)C(=O)OCc2c1cc1n(c2=O)Cc2cc3c(CN(C)C)c(O)ccc3nc2-1 ?
> 7.50

Cc1cc(C)c(CNC(=O)c2cc(-c3ccc(CN4CCOCC4)cc3)cc3c2cnn3C2CCCC2)c(=O)[nH]1 + CC[C@@]1(O)C(=O)OCc2c1cc1n(c2=O)Cc2cc3c(CN(C)C)c(O)ccc3nc2-1 ?
> 7.50

CNCc1ccc(-c2cc(-c3nc(-c4ccc(S(=O)(=O)C(C)C)cc4)cnc3N)on2)cc1 + CC[C@@]1(O)C(=O)OCc2c1cc1n(c2=O)Cc2cc3c(CN(C)C)c(O)ccc3nc2-1 ?
> 8.02

###

system: 287954-098-R-J1 tumor spheroid viability; assay: Anticancer human tumor 287954-098-R-J1 cell line growth inhibition; conditions: second compound 0.000949 µM; first compound 0.316 µM; stronger effect = lower value; spheroids with HUVEC and MSC;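 also: spheroids exposed to compound for 7 days before viability readout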;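 as to viability, T/C: luminescent signal taken as surrogate of viable cell content; 100% = DMSO vehicle control viability and lower means growth inhibition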
Checkbox rule: viability, T/C lower than 0.3% = satisfied; viability, T/C not lower than 0.3% = not satisfied.

Does COc1ccc([C@@H](O)c2cc(-c3ncnc4cc(N5CCOCC5)ccc34)c(F)cc2Cl)nn1 + COc1cc2c(cc1O)CCNC21CSC2c3c(OC(C)=O)c(C)c4c(c3C(COC1=O)N1C(O)C3Cc5cc(C)c(OC)c(O)c5C(C21)N3C)OCO4 have viability, T/C strictly under 0.3%?
not satisfied

[2H]c1nc(C)nc([2H])c1-c1cc(NC[C@@H](C)c2cccc3c(C(=O)NC)ccnc23)ncn1 + COc1cc2c(cc1O)CCNC21CSC2c3c(OC(C)=O)c(C)c4c(c3C(COC1=O)N1C(O)C3Cc5cc(C)c(OC)c(O)c5C(C21)N3C)OCO4 ?
not satisfied

CC(C)n1c(=O)n(C)c2cnc3cc(F)c(-c4ccc(OCCCN5CCCCC5)nc4)cc3c21 + COc1cc2c(cc1O)CCNC21CSC2c3c(OC(C)=O)c(C)c4c(c3C(COC1=O)N1C(O)C3Cc5cc(C)c(OC)c(O)c5C(C21)N3C)OCO4 ?
not satisfied

Cc1cc(C)c(CNC(=O)c2cc(-c3ccc(CN4CCOCC4)cc3)cc3c2cnn3C2CCCC2)c(=O)[nH]1 + COc1cc2c(cc1O)CCNC21CSC2c3c(OC(C)=O)c(C)c4c(c3C(COC1=O)N1C(O)C3Cc5cc(C)c(OC)c(O)c5C(C21)N3C)OCO4 ?
satisfied

CC1COCCN1c1cc(-c2ccnn2C)c2ccnc(-c3ccn[nH]3)c2n1 (stereo unspecified) + COc1cc2c(cc1O)CCNC21CSC2c3c(OC(C)=O)c(C)c4c(c3C(COC1=O)N1C(O)C3Cc5cc(C)c(OC)c(O)c5C(C21)N3C)OCO4 ?
not satisfied

COc1cc(C)[nH]c(=O)c1CN1CCc2c(Cl)cc(C(OC)C3COC3)c(Cl)c2C1=O (stereo unspecified) + COc1cc2c(cc1O)CCNC21CSC2c3c(OC(C)=O)c(C)c4c(c3C(COC1=O)N1C(O)C3Cc5cc(C)c(OC)c(O)c5C(C21)N3C)OCO4 ?
not satisfied

###

Provide the reported viability, T/C of each item.
test system: 287954-098-R-J1 tumor spheroid viability; assay: Anticancer human tumor 287954-098-R-J1 cell line growth inhibition; conditions: second compound 0.3 µM; first compound 0.1 µM; stronger effect = lower value; spheroids with HUVEC and MSC;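 also: spheroids exposed to compound for 7 days before viability readout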;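 as to viability, T/C: luminescent signal taken as surrogate of viable cell content; 100% = DMSO vehicle control viability and lower means growth inhibition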
Return type: number; implicit unit %.

viability, T/C of Cc1cc(C)c(CNC(=O)c2cc(-c3ccc(CN4CCOCC4)cc3)cc3c2cnn3C2CCCC2)c(=O)[nH]1 + CC[C@@]1(O)C(=O)OCc2c1cc1n(c2=O)Cc2cc3c(CN(C)C)c(O)ccc3nc2-1 on 287954-098-R-J1 tumor spheroid viability?
2.08

CC(C)n1c(=O)n(C)c2cnc3cc(F)c(-c4ccc(OCCCN5CCCCC5)nc4)cc3c21 + CC[C@@]1(O)C(=O)OCc2c1cc1n(c2=O)Cc2cc3c(CN(C)C)c(O)ccc3nc2-1 ?
1.68

CC1COCCN1c1cc(-c2ccnn2C)c2ccnc(-c3ccn[nH]3)c2n1 (stereo not drawn) + CC[C@@]1(O)C(=O)OCc2c1cc1n(c2=O)Cc2cc3c(CN(C)C)c(O)ccc3nc2-1 ?
1.43

###

system: 287954-098-R-J1 tumor spheroid viability; test: Anticancer human tumor 287954-098-R-J1 cell line growth inhibition; settings: second compound 30 pM; first compound 0.316 µM; stronger effect = lower value; spheroids with HUVEC and MSC;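 also: spheroids exposed to compound for 7 days before viability readout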;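 as to viability, T/C: luminescent signal taken as surrogate of viable cell content; 100% = DMSO vehicle control viability and lower means growth inhibition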
quantity kind: viability, T/C

// lookup viability, T/C for COc1ccc([C@@H](O)c2cc(-c3ncnc4cc(N5CCOCC5)ccc34)c(F)cc2Cl)nn1 + COc1cc2c(cc1O)CCNC21CSC2c3c(OC(C)=O)c(C)c4c(c3C(COC1=O)N1C(O)C3Cc5cc(C)c(OC)c(O)c5C(C21)N3C)OCO4
100%

CC(C)n1c(=O)n(C)c2cnc3cc(F)c(-c4ccc(OCCCN5CCCCC5)nc4)cc3c21 + COc1cc2c(cc1O)CCNC21CSC2c3c(OC(C)=O)c(C)c4c(c3C(COC1=O)N1C(O)C3Cc5cc(C)c(OC)c(O)c5C(C21)N3C)OCO4 ?
62.4%

###

tested on: 287954-098-R-J1 tumor spheroid viability; experiment: Anticancer human tumor 287954-098-R-J1 cell line growth inhibition; settings: second compound 30 pM; first compound 3 µM; spheroids with HUVEC and MSC; active = viability on the fitted dose curve at most 10% of control; inactive = the rest;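 also: spheroids exposed to compound for 7 days before viability readout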
Outcome (select one): TRUE = active, FALSE = inactive

Please indicate how the test categorized CNCc1ccc(-c2cc(-c3nc(-c4ccc(S(=O)(=O)C(C)C)cc4)cnc3N)on2)cc1 + COc1cc2c(cc1O)CCNC21CSC2c3c(OC(C)=O)c(C)c4c(c3C(COC1=O)N1C(O)C3Cc5cc(C)c(OC)c(O)c5C(C21)N3C)OCO4 .
TRUE

Cc1sc2c(c1C)C(c1ccc(Cl)cc1)=NC(CC(=O)Nc1ccc(O)cc1)c1nnc(C)n1-2 (centres undefined) + COc1cc2c(cc1O)CCNC21CSC2c3c(OC(C)=O)c(C)c4c(c3C(COC1=O)N1C(O)C3Cc5cc(C)c(OC)c(O)c5C(C21)N3C)OCO4 ?
TRUE

Cn1ncnc1[C@H]1c2n[nH]c(=O)c3cc(F)cc(c23)N[C@@H]1c1ccc(F)cc1 + COc1cc2c(cc1O)CCNC21CSC2c3c(OC(C)=O)c(C)c4c(c3C(COC1=O)N1C(O)C3Cc5cc(C)c(OC)c(O)c5C(C21)N3C)OCO4 ?
TRUE

O=C(c1cc(Cc2n[nH]c(=O)c3ccccc23)ccc1F)N1CCN(C(=O)C2CC2)CC1 + COc1cc2c(cc1O)CCNC21CSC2c3c(OC(C)=O)c(C)c4c(c3C(COC1=O)N1C(O)C3Cc5cc(C)c(OC)c(O)c5C(C21)N3C)OCO4 ?
FALSE
